measurementNotes: Example 7: Phase III clinical study, plasma pharmacokinetics of TP-1
Type: in vivo, human
runParameters: human, plasma, olopatadine in plasma, patients receiving TP-1, Day 1; read-out: AUCtau, Min-Max
measuredProperty: AUC

In: Give its AUC value. Item: "CN(C)CC/C=C1/c2ccccc2COc2ccc(CC(=O)O)cc21"
Out: 39.3 to 117 ng·h/mL

###

measurementNotes: Example 7: Phase III clinical study, plasma pharmacokinetics of TP-1
Assay type: in vivo, human
runParameters: human, plasma, mometasone furoate in plasma, patients receiving TP-1, Day 1; read-out: AUCtau, Mean (SD)
measuredProperty: AUC (ng·h/mL)
Give the quantity in ng·h/mL, number only.

In: Give its AUC value. Item: C[C@@H]1C[C@H]2[C@@H]3CCC4=CC(=O)C=C[C@]4(C)[C@@]3(Cl)[C@@H](O)C[C@]2(C)[C@@]1(OC(=O)c1ccco1)C(=O)CCl [Mometasone furoate]
Out: 0.0286

All values here come from patent EP3468532B1.
